Reported pIC50 values are given for each entry in this list.
# MEASURED_TARGET: NRAS Q61R (Homo sapiens (Human), UniProt P01111+P62937, Q61R)
# Sequence (P01111 whole entry Q61R): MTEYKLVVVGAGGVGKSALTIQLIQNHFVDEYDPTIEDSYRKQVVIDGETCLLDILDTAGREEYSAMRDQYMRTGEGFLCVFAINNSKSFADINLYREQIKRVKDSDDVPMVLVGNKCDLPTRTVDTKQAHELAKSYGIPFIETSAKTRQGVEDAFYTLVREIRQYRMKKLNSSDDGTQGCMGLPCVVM
# Sequence (P62937 whole entry): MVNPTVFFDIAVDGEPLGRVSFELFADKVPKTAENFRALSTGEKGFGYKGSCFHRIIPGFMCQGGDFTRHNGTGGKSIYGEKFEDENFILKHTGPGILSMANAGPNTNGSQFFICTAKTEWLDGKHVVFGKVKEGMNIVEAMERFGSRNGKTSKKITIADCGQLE
# ASSAY: Ras-Raf (BRAF RBD) disruption / FRET / MOA assay, NRAS Q61R
# Format: biochemical
# EXPERIMENTAL_CONDITIONS: NRAS Q61R; Ras-Raf disruption/FRET/MOA assay; read-out: IC50* NRAS Q61R FRET data
pIC50: −log10 of the molar value.

Example entries begin here.
# COMPOUND, pIC50
records = [
    ("C=CC(=O)N(C)[C@H]1C[C@H](N(C)C(=O)N(C)[C@H](C(=O)N[C@H]2Cc3nc(cs3)-c3ccc4c(c3)c(c(-c3cccnc3[C@H](C)OC)n4CC)CC(C)(C)COC(=O)[C@@H]3CCCN(N3)C2=O)C(C)C)C1 (atropisomer, axis not shown)", "7.00 to 8.00"),
    ("C=CC(=O)N1CC[C@H](C(=O)N(C)[C@H](C(=O)N[C@H]2Cc3cccc(c3)-c3ccc4c(c3)c(c(-c3cc(C5CN(C)C5)cnc3[C@H](C)OC)n4CC)CC(C)(C)COC(=O)[C@@H]3CCCN(N3)C2=O)C(C)C)C1 (atropisomer, axis not shown)", "5.00 to 6.00"),
    ("CCn1c(-c2cccnc2[C@H](C)OC)c2c3cc(ccc31)-c1cnc(o1)C[C@H](NC(=O)[C@H](C(C)C)N(C)C(=O)[C@H]1CCN(C(=O)C#CC(C)(C)N(C)C)C1)C(=O)N1CCC[C@H](N1)C(=O)OCC(C)(C)C2 (atropisomer, axis not shown)", "< 5.00"),
    ("C=CC(=O)N1CC[C@H](C(=O)N(C)[C@H](C(=O)N[C@H]2Cc3cccc(c3)-c3ccc4c(c3)c(c(-c3cccnc3[C@H](C)OC)n4CC)CC(C)(C)COC(=O)[C@@H]3CCCN(N3)C2=O)[C@@H](C)C(F)(F)F)C1 (atropisomer, axis not shown)", "5.00 to 6.00"),
]

Reported pIC50 for C=CC(=O)N1CCO[C@H]2CN(C(=O)N(C)[C@H](C(=O)N[C@H]3Cc4cccc(n4)-c4ccc5c(c4)c(c(-c4cccnc4[C@H](C)OC)n5CC(F)(F)F)CC(C)(C)COC(=O)[C@@H]4CCCN(N4)C3=O)C(C)C)C[C@H]21 (atropisomer, axis not shown) was 6.00 to 7.00

Reported pIC50 for "C=CC(=O)N1CC[C@H](C(=O)N(C)[C@H](C(=O)N[C@H]2Cc3cc(O)cc(c3)-c3ccc4c(c3)c(c(-c3cc(C#N)cnc3COC)n4CC)CC(C)(C)COC(=O)[C@@H]3CCCN(N3)C2=O)C(C)C)C1" was 6.00 to 7.00

Reported pIC50 for CCn1c(-c2cccnc2[C@H](C)OC)c2c3cc(ccc31)-c1cccc(c1)C[C@H](NC(=O)[C@H](C(C)C)N1CO[C@@]3(CCN(C(=O)/C=C/CN(C)C)C3)C1=O)C(=O)N1CCC[C@H](N1)C(=O)OCC(C)(C)C2 (atropisomer, axis not shown) was 5.00 to 6.00
